- TEST_PROTOCOL: Cytotoxicity in HeLa cells, ATP content measured with the ATPlite kit
- Format: cell-based
- EXPERIMENTAL_CONDITIONS: human, TOX HELA pCC50
Recorded CC50 at 3 days by entry

Looking for the measured CC50 at 3 days of C[C@@H]1CCCCCN1C(=O)c1cc(C2CC2)n2nc(-c3cccc([C@H]4C[C@@H]4C(=O)O)c3F)cc2n1 , can you help?
97.7 µM

Try this molecule too: CCc1cc(C(=O)N2CCn3cccc3C2C)nc2cc(-c3ccc(/C=C/C(=O)O)cc3F)nn12 (single isomer, unassigned) [Compound M44]
> 25.1 µM

Try this molecule too: CCc1cc(C(=O)N2CCCCC[C@H]2C)nc2cc(-c3ccc(-c4ncc(C(=O)O)s4)cc3F)nn12 (racemic)
42.7 µM

Try this molecule too: CCc1cc(C(=O)N2CCCCCC2C)nc2cc(-c3ccc(-c4cncnc4)cc3)nn12 (stereo not shown)
> 100 µM

Try this molecule too: CCc1cc(C(=O)N2CCCCCC2C)nc2cc(-c3cccs3)nn12 (stereo not shown)
> 50.1 µM

Continuing:
Looking for the measured CC50 at 3 days of CCc1cc(C(=O)N2CCCCC[C@H]2C)nc2cc(-c3ccc(NC(=O)C4CC4)cc3F)nn12 , can you help?
> 25.1 µM

Try this molecule too: CCc1cc(C(=O)N2CCCCC[C@H]2C)nc2cc(-c3ccc(C4C[C@H]4C(=O)O)cc3F)nn12 (single isomer, unassigned)
> 25.1 µM

Reference source for all entries: patent US11084826B2
